The following binders are shown together with reported mean fluorescence intensity values.
Molecular target: his-labeled human IL-13 (immunogen A) (human) (UniProt P35225)
Experiment: FACS blocking, biotin-IL-13 on IL-13Ra2 HEK293 cells; antibody at 6.67 nM

# binder, mean fluorescence intensity
records = [
    ("70F10A10 (lead antibody, mouse hybridoma) (antibody, V domains shown) VH: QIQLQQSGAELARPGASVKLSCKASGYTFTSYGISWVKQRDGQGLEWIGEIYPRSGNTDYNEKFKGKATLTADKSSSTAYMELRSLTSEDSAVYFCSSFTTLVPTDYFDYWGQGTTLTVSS VL: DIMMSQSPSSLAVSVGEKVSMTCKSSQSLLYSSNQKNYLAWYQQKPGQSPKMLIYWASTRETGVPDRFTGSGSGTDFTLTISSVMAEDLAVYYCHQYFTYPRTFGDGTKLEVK", 42.3),
    ("29D9H8 (lead antibody, mouse hybridoma) (antibody, V domains shown, Mouse monoclonal antibody purified from hybridoma supernatant on Protein G) VH: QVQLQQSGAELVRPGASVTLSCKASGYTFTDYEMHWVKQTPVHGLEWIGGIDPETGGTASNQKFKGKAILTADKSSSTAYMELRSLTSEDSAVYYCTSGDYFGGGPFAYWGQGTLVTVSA VL: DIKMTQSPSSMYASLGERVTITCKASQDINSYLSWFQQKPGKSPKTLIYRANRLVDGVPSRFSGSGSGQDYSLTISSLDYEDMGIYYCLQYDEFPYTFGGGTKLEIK", 23.6),
    ("c35E2C3 (mouse-human chimeric IL-13 antibody) (antibody, V domains shown) VH: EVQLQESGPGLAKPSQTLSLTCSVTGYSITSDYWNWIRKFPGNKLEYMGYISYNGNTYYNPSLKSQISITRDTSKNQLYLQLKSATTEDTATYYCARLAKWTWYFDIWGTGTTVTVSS VL: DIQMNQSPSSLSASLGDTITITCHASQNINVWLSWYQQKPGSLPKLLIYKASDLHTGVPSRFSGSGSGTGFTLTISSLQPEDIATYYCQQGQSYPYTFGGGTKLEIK", 22.2),
    ("35E2C3 (lead antibody, mouse hybridoma) (antibody, V domains shown, Mouse monoclonal antibody purified from hybridoma supernatant on Protein G) VH: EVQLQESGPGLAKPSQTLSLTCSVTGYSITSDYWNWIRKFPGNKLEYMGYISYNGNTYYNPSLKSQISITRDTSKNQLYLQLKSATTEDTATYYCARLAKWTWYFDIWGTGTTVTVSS VL: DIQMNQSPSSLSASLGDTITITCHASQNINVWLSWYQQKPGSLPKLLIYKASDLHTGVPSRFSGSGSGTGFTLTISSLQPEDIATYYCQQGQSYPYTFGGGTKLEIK", 35.1),
]

What does the record list as mean fluorescence intensity for c70F10A10 (mouse-human chimeric IL-13 antibody) (antibody, V domains shown) VH: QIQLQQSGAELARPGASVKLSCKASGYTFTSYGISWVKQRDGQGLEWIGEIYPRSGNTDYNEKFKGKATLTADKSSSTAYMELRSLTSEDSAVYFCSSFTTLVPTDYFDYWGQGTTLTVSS VL: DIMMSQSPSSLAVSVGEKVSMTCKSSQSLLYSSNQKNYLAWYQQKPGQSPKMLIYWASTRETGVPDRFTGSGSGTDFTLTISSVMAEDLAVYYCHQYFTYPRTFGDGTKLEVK ?
31

Cited source for all entries: patent US20190309059A1
